The entries below are paired with their reported MIC.
system: Candida albicans; test: Compound was tested in vitro for antifungal activity against Candida albicans.; assay type: functional

{"molecule": "Clc1ccc(CN2CCc3ccccc3C2Cn2ccnc2)c(Cl)c1 (stereo not drawn)", "MIC": "> 50 µg/mL"}
{"molecule": "Fc1ccc(CN2CCc3ccccc3C2Cn2ccnc2)cc1 (stereo not drawn)", "MIC": "> 50 µg/mL"}
{"molecule": "Fc1ccc(CN2CCc3ccccc3C2Cn2cncn2)cc1 (stereo not drawn)", "MIC": "> 50 µg/mL"}
{"molecule": "c1ccc(CN2CCc3ccccc3C2Cn2ccnc2)cc1 (stereo not drawn)", "MIC": "> 50 µg/mL"}
{"molecule": "Clc1ccc(CN2CCc3ccccc3C2Cn2ccnc2)cc1 (stereo not drawn)", "MIC": "> 50 µg/mL"}
{"molecule": "Fc1ccc(CN2CCc3ccccc3C2Cn2cncn2)c(F)c1 (stereo not drawn)", "MIC": "> 50 µg/mL"}
{"molecule": "OC(Cn1cncn1)(Cn1cncn1)c1ccc(F)cc1F [FLUCONAZOLE]", "MIC": "> 50 µg/mL"}
{"molecule": "C[C@@H]1[C@H](O)[C@@H](C)/C=C/C=C/C=C/C=C/C=C/C=C/C=C/[C@H](O[C@@H]2O[C@H](C)[C@@H](O)[C@H](N)[C@@H]2O)C[C@@H]2O[C@](O)(C[C@@H](O)C[C@@H](O)[C@H](O)CC[C@@H](O)C[C@@H](O)CC(=O)O[C@H]1C)C[C@H](O)[C@H]2C(=O)O [AMPHOTERICIN B]", "MIC": "0.19 µg/mL"}
{"molecule": "Clc1ccc(CN2CCc3ccccc3C2Cn2cncn2)c(Cl)c1 (stereo not drawn)", "MIC": "> 50 µg/mL"}
{"molecule": "Fc1ccc(CN2CCc3ccccc3C2Cn2ccnc2)c(F)c1 (stereo not drawn)", "MIC": "> 50 µg/mL"}
{"molecule": "c1ccc(CN2CCc3ccccc3C2Cn2cncn2)cc1 (stereo not drawn)", "MIC": "> 50 µg/mL"}
{"molecule": "Clc1ccc(COC(Cn2ccnc2)c2ccc(Cl)cc2Cl)c(Cl)c1 (stereo not drawn) [MICONAZOLE]", "MIC": "12.5 µg/mL"}
{"molecule": "Clc1ccc(CN2CCc3ccccc3C2Cn2cncn2)cc1 (stereo not drawn)", "MIC": "> 50 µg/mL"}
